Each record here notes measured Avg OD.
# Target Under Test: GPNMB-V5His (recombinant human GPNMB extracellular domain with C-terminal V5-His tag) (human) (UniProt Q14956)
# Assay Remarks: ELISA, coated GPNMB, Ab 333 ng/mL

# example entries with known answers
Binder	Avg OD
2-22 (hybridoma of Table 6) (antibody, V domains shown) VH: QVQLEQSGPGLVKPSQNLSLTCTVSGGSISSGGYFWSWIRQHPGKGLEWIGYIYYSGNTYYNPSLKSRVTISVDTSKNQFSLKLSSVTAADTAVYYCARDYYYDTSGFSYRYDWYYGMDVWGQGTTVTVSS VL: DIQLTQSPSSLSASVGDRVTITCRASQGIRNDLGWYQQKPGKAPKRLIYAASSLQNGVPSRFSGSGSGTEFTLTISSLQPEDFATYYCLQHNTYPAFGQGTKVEIKR	0.538 OD
2-16 (hybridoma of Table 6) (antibody, V domains shown) VH: QVQLVESGGGLVKPGGSLRLSCAASGFTFSDYYMTWIRQAPGKGLEWVSYISISGSITHYADSVKGRFTMSRDNAKNSLYLQMNSLRAEDTAVYYCARDGAAAGTDAFDIWGHGTKVTVSS VL: EIVMTQSPATLSVSPGDRATLSCRASQNVSSNLAWYQQKPGQAPRLLIFGASTRATGIPARFSGSGSGTEFTLTISSLQSEDFAVYYCQQYHYWPTFGPGTKVDIKR	0.068 OD

The record that follows has no Avg OD shown yet.
Form field: reported Avg OD of 2-15 (hybridoma of Table 6) (antibody, V domains shown) VH: QVQLVESGGGVVQPGRSLRLSCAASGFTFSNYGIHWVRQAPGKGLEWVAVIWFDGRNKYYADSVKGRFTISRDNSKNTLYLQMNSLRAEDAAVYYCARDPFDYGDSFFDYWGQGTLVTVSS VL: LTQSPSSLSASVRDRVTITCRASQDISNYLAWYQQKPGKVPNLLIYAASTLQSGVPSRFSGSGSGTDFTLTISSLQPEDVATYYCQKYNSAPLTFGGGTKVEIKR
0.578 OD
